Data provenance: the Immune Epitope Database (IEDB)

# experimental.system: HLA-A*23:01
# measurement.notes: IEDB peptide-MHC binding, purified MHC/competitive/radioactivity; filed as Kd, often an IC50 or EC50 that approximates it; bounds were set here for any values at or beyond the usual limits of such assays
# test.parameters: source organism: SARS coronavirus Tor2
Listed next: entries and their corresponding Kd.

primary_sequence=APALQEAYY observed="≥ 77.8 µM"

Record LDESFLGRY , field Kd: ≥ 77.8 µM

The sequence listed as TSSMRGVYY has a reported Kd of ≥ 77.8 µM

response.value for VSIINNAVY (field: Kd) = ≥ 44.3 µM

---

// reported Kd per item
# experimental.system: HLA-A*68:01
# measurement.notes: IEDB peptide-MHC binding, purified MHC/competitive/radioactivity; filed as Kd, often an IC50 or EC50 that approximates it; bounds were set here for any values at or beyond the usual limits of such assays
# test.parameters: source organism: SARS coronavirus Tor2

Would you please look over these solved cases?
primary_sequence=VLLRKNGNK observed_property=Kd observed="≥ 26.1 µM"
primary_sequence=NLKQLPFFYY observed_property=Kd observed="≥ 10 µM"

Next up:
Query GQGQNSADPK yields Kd of ≥ 70.2 µM
